Each recorded value in this set is attributed to patent US4137236A.

Tested on: Escherichia coli K 12-44 R
Test: MIC in gelose culture medium (relative to reference penicillin)
Format: cell-based
Details: E.COLI K 12-44R; reference ampicillin = 1
In this section we review reported MIC relative to reference compound (=1) values for a set of molecules.
# answer = number (no unit)

Here are 2 molecules together with their reported answers.
| Molecule | MIC relative to reference compound (=1) |
| --- | --- |
| N[C@@H](C(=O)NC1C(=O)N2C1SC1(CCOCC1)C2C(=O)O)c1ccccc1 (single isomer, unassigned) | 1.5 |
| NC(C(=O)NC1C(=O)N2C1SC1(CC[S+]([O-])CC1)C2C(=O)O)c1ccccc1 (stereo not shown) | 2 |

# context switch: different molecule, same MIC relative to reference compound (=1)
Prompt line: Field request: MIC relative to reference compound (=1) | item: CC1(C)S[C@@H]2[C@H](NC(=O)[C@H](N)c3ccccc3)C(=O)N2[C@H]1C(=O)O [Ampicillin, ampicillin, reference compound]
Response line: 1

----------
Listing: MIC relative to reference compound (=1) of selected molecules
System: Escherichia coli K 12-44
Test: MIC in gelose culture medium (relative to reference penicillin)
Type: cell-based
Details: E.COLI K 12-44; reference ampicillin = 1
I'd appreciate a reply containing only the number, no unit.

Use these answered entries as a reference point.
| Molecule | Reported result |
| --- | --- |
| NC(C(=O)NC1C(=O)N2C1SC1(CCSCC1)C2C(=O)O)c1ccccc1 (stereo not shown) | 10 |
| CC1(C)S[C@@H]2[C@H](NC(=O)[C@H](N)c3ccccc3)C(=O)N2[C@H]1C(=O)O [Ampicillin, ampicillin, reference compound] | 1 |
| N[C@@H](C(=O)NC1C(=O)N2C1SC1(CCOCC1)C2C(=O)O)c1ccccc1 (single isomer, unassigned) | 3.5 |

Proceeding to the next molecule to report its MIC relative to reference compound (=1).
Prompt line: Missing value: MIC relative to reference compound (=1), Escherichia coli K 12-44, entry NC(C(=O)NC1C(=O)N2C1SC1(CC[S+]([O-])CC1)C2C(=O)O)c1ccccc1 (stereo not shown) . Fill in?
Response line: 3
